Values from patent US20260008760A1

# target_or_test_system: human DPP1 enzyme (Homo sapiens, UniProt P53634)
# Sequence (P53634 25-463): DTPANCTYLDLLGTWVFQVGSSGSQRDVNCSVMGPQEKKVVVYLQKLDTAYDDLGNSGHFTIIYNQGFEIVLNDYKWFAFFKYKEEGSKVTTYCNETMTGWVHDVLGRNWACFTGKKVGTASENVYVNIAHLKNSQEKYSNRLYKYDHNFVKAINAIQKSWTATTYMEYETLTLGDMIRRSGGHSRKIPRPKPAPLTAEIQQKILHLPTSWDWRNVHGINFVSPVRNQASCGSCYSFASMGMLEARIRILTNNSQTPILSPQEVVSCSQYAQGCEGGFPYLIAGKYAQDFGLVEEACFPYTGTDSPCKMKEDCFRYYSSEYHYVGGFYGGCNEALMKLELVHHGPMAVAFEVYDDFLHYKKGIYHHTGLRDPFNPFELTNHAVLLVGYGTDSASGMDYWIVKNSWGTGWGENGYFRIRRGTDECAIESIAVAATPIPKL
# test_description: Human DPP1 Enzyme Single-Point Percent Inhibition Testing (HL-60 lysate)
# Format: biochemical
# Set-up: A crude lysate of HL-60 cells (ATCC; Manassas, VA) was used as a source of human DPP1 enzyme; host or cells: HL-60 cells (crude lysate)
# assay_conditions: final compound concentration of 10 nM, 400 μM H-Gly-Arg-AMC, n = 1
readout_kind: inhibition at 0.01 µM

INSERT INTO measurements (compound, readout_kind, recorded_value) VALUES
  ('C[C@@H]1NC[C@@H](C(=O)N[C@H](C#N)Cc2ccc(-c3ccc4nnn(C)c4c3)cc2)OC[C@@H]1O', 'inhibition at 0.01 µM', '≤ 40%'),
  ('C[C@@H]1NC[C@@H](C(=O)N[C@H](C#N)Cc2ccc(-c3ccc4nnn(C)c4c3)cc2F)OC[C@@H]1O', 'inhibition at 0.01 µM', '40 to 66.7%'),
  ('CO[C@H]1CCO[C@H](C(=O)N[C@H](C#N)Cc2ccc(-c3ccc4c(c3)C3(CCN(C)C3)OC4=O)cc2)CNC1 (some centres unmarked)', 'inhibition at 0.01 µM', '40 to 66.7%');

As a next step, examine the compound that follows.
Q) Identify the measured inhibition at 0.01 µM of "CCN1C(=O)Cc2ccc(-c3ccc(C[C@@H](C#N)NC(=O)[C@@H]4CNCC[C@@H](OC)CO4)c(F)c3)cc21" for human DPP1 enzyme (Homo sapiens, UniProt P53634).
A) ≥ 66.7%
